- target: FAK (Homo sapiens)
- Construct: homozygous knock-in of a HiBiT tag (Promega Corporation, Madison, WI) to the C-terminus of the FAK gene in its natural genomic locus; endogenous in cells; host or cells: JHH-4-FAK-HiBiT clone d01 (CRISPR-Cas9 knock-in at the endogenous locus)
- Sequence (Q05397 whole entry): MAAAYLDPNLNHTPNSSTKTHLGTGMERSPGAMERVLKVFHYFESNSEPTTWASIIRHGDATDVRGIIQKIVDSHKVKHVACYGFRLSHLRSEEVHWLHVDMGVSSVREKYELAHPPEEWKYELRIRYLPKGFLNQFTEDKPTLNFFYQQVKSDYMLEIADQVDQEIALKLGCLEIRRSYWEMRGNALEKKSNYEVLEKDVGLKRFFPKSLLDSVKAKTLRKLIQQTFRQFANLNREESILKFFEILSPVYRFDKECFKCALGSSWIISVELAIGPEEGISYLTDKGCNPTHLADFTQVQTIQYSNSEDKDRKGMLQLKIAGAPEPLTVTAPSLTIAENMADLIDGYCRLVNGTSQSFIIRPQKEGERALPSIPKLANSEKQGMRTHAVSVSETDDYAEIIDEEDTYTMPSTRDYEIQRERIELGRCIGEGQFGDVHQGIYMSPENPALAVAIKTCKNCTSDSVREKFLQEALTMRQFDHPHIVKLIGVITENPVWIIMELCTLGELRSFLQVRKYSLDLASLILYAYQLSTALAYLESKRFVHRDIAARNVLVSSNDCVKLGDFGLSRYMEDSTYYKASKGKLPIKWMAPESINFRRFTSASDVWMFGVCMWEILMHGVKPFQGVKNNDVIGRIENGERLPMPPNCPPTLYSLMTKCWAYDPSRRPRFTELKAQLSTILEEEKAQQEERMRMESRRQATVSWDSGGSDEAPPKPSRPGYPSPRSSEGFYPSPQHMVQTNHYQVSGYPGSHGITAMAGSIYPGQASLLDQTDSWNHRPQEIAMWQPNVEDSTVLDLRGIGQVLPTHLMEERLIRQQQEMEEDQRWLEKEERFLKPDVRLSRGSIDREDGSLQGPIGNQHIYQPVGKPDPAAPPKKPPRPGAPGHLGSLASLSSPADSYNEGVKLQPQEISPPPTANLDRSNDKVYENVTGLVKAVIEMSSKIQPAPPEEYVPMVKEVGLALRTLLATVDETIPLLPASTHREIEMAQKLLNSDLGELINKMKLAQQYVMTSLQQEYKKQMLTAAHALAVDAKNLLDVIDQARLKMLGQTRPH
- protocol-notes: FAK-HiBiT Degradation Assay
- Assay type: cell-based
- study-conditions: lower limit of the four parameter fit (value A); Ymax derived using DMSO control; JHH-4-FAK-HiBiT cells, two hours
experimental-endpoint: FAK HiBiT Ymin

| compound | experimental-endpoint | reported-result |
| --- | --- | --- |
| O=C1CC[C@H](N2Cc3c(ccc(Cn4ncc5c(-c6ncc(F)cc6Cl)cc(N6CC(F)C6)nc54)c3F)C2=O)C(=O)N1 (single isomer, unassigned) [Example 61] | FAK HiBiT Ymin | 7.65 |
| O=C1CCC(N2Cc3cc(Cn4ncc5c(-c6ncc(Cl)cc6Cl)cc(N6CC(F)C6)nc54)ccc3C2=O)C(=O)N1 (stereo not shown) [Example 35] | FAK HiBiT Ymin | 10.02 |

[1] CCOc1cnc(-c2cc(N3CC(F)C3)nc3c2cnn3Cc2ccc3c(c2)CN([C@H]2CCC(=O)NC2=O)C3=O)c(C)c1 [Example 82]
[2] N#Cc1ccc(-c2c(F)c(N3CC(F)C3)nc3c2cnn3Cc2ccc3c(c2)CN([C@H]2CCC(=O)NC2=O)C3=O)nc1 [Example 75]
Prompt: Between 1 and 2 , which one shows the smaller FAK HiBiT Ymin number? Give the chosen item's label as your response.
Response: 1
(1: 8.29, 2: 23.15)
